system: phospho(Ser63)-c-jun in HK-2 cells; test: Cell-based assay for JNK inhibitors: in-cell ELISA of TNFα-stimulated phospho(Ser63)-c-jun in HK-2 cells; settings: Homo sapiens, 10 ng/mL TNFα, 60 min preincubation with compound
metric name: pEC50
Just the number, please; pEC50 means minus log10 of the concentration in mol/L.

## Input Consider the compound COC(=O)c1c(Cc2ccc(C(=O)N[C@@H]3[C@@H]4C[C@@H]5C[C@H]3C[C@@](NC(=O)C(C)(C)O)(C5)C4)cc2)c(=O)c2ccc(Cl)cc2n1-c1ccccc1 [Compound I-13] and give its measured pEC50.
## Output 5.72

## Input What about this compound? COC(=O)c1c(Cc2ccc(C(=O)N[C@@H]3[C@@H]4C[C@@H]5C[C@H]3C[C@@](NS(C)(=O)=O)(C5)C4)cc2)c(=O)c2ccc(Cl)cc2n1-c1ccccc1 [Compound I-15]
## Output 5.49

## Input What about this compound? COC(=O)c1c(Cc2ccc(C(=O)N[C@@H]3[C@@H]4C[C@@H]5C[C@H]3C[C@@](NS(=O)(=O)C3CC3)(C5)C4)cc2)c(=O)c2cccnc2n1-c1ccccc1 [Compound I-18]
## Output 5.74

## Input What about this compound? COC(=O)c1c(Cc2ccc(C(=O)N[C@@H]3[C@@H]4C[C@@H]5C[C@H]3C[C@@](OC(C)=O)(C5)C4)cc2)c(=O)c2ccc(Cl)cc2n1-c1ccccc1 [Compound I-6]
## Output 5.36

## Input What about this compound? O=C(N[C@@H]1[C@@H]2C[C@@H]3C[C@H]1C[C@@](O)(C3)C2)c1ccc(Cc2c(-c3ncco3)n(-c3ccccc3)c3cc(Cl)ccc3c2=O)cc1 [Compound I-27]
## Output 5.07

## Input What about this compound? COC(=O)c1c(Cc2ccc(C(=O)N[C@H]3[C@@H]4C[C@@H]5C[C@H]3C[C@@](O)(C5)C4)cc2)c(=O)c2cccnc2n1-c1ccccc1 [Compound I-2]
## Output 5.07

## Input What about this compound? COC(=O)c1c(Cc2ccc(C(=O)N[C@@H]3[C@@H]4C[C@@H]5C[C@H]3C[C@@](NC(=O)C(C)(C)OC(C)=O)(C5)C4)cc2)c(=O)c2cccnc2n1-c1ccccc1 [Compound I-21]
## Output 5.32

## Input What about this compound? COC(=O)c1c(Cc2ccc(C(=O)N[C@@H]3[C@@H]4C[C@@H]5C[C@H]3C[C@@](NC(=O)C(C)(C)C)(C5)C4)cc2)c(=O)c2cccnc2n1-c1ccccc1 [Compound I-20]
## Output 5.28
